These entries and their values trace back to ChEMBL document CHEMBL1148647.

Test system: THP-1
MEASUREMENT DESCRIPTION: Inhibition of ILbeta production in human THP1 cells
Assay type: functional, cell-based
In this section we review reported IC50 values for a set of molecules.
EXPERIMENTAL ENDPOINT: IC50 (nM)

{"columns": ["STRUCTURE STRING", "EXPERIMENTAL ENDPOINT", "TEST VALUE"],
 "data": [
  ["FC(F)(F)c1cccc(-c2nnnn2Cc2cccnc2)c1Cl", "IC50", 79.4],
  ["Clc1cccc(-c2nnnn2Cc2cccnc2)c1Cl", "IC50", 398],
  ["Cc1ccccc1Cn1nnnc1-c1cccc(Cl)c1Cl", "IC50", 158],
  ["FC(F)(F)c1cccc(-n2nnnc2Cc2cccnc2)c1Cl", "IC50", 25.1],
  ["Fc1ccc(-n2nnnc2Cc2cccnc2)c(Cl)c1Cl", "IC50", 39.8],
  ["Cc1ncccc1Cn1nnnc1-c1cccc(Cl)c1Cl", "IC50", 158],
  ["Fc1c(-c2nnnn2Cc2cccnc2)cccc1C(F)(F)F", "IC50", 501],
  ["Clc1cccc(-c2nnnn2Cc2ccncc2)c1Cl", "IC50", 20000]
]}

====

MEASUREMENT DESCRIPTION: Half life in rat at 10 umol/kg
Format: ADME, organism-based
ASSAY CONDITIONS: in vivo

{"columns": ["STRUCTURE STRING", "half-life"],
 "data": [
  ["Clc1cccc(-c2nnnn2Cc2cccnc2)c1Cl", "1 h"]
]}

====

Let's look at some compounds and their measured IC50.
TARGET OR TEST SYSTEM: P2X purinoceptor 7 (Homo sapiens, UniProt Q99572)
Sequence (Q99572 whole entry): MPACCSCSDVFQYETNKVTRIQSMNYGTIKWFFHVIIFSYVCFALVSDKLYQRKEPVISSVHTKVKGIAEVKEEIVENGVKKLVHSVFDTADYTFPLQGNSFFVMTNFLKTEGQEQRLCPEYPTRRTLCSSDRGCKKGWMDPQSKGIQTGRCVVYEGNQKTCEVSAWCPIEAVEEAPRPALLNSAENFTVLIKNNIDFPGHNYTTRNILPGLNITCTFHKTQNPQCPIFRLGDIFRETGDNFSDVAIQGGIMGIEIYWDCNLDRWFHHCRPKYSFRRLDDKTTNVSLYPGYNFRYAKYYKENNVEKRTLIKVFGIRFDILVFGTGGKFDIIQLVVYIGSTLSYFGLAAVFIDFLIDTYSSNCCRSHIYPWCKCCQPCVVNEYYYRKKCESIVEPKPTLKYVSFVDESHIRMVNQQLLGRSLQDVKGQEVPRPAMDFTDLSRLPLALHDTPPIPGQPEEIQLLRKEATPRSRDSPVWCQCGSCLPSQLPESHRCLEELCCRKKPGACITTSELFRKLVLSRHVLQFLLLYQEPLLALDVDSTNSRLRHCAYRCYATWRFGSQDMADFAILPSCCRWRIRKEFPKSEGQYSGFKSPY
MEASUREMENT DESCRIPTION: Antagonist activity at human P2X7 receptor expressed in human 1321N1 cells assessed as inhibition of calcium flux by FLIPR
EXPERIMENTAL ENDPOINT: IC50 (nM)

{"columns": ["STRUCTURE STRING", "TEST VALUE"],
 "data": [
  ["Cc1ncccc1Cn1nnnc1-c1cccc(Cl)c1Cl", 31.6],
  ["Cc1ccccc1Cn1nnnc1-c1cccc(C)c1C", 251],
  ["FC(F)(F)c1cccc(-c2nnnn2Cc2cccnc2)c1Cl", 12.6],
  ["Cc1noc(C)c1Cn1nnnc1-c1cccc(Cl)c1Cl", 158]
]}

====

TARGET OR TEST SYSTEM: P2X purinoceptor 7 (Rattus norvegicus)
Sequence (Q64663 whole entry): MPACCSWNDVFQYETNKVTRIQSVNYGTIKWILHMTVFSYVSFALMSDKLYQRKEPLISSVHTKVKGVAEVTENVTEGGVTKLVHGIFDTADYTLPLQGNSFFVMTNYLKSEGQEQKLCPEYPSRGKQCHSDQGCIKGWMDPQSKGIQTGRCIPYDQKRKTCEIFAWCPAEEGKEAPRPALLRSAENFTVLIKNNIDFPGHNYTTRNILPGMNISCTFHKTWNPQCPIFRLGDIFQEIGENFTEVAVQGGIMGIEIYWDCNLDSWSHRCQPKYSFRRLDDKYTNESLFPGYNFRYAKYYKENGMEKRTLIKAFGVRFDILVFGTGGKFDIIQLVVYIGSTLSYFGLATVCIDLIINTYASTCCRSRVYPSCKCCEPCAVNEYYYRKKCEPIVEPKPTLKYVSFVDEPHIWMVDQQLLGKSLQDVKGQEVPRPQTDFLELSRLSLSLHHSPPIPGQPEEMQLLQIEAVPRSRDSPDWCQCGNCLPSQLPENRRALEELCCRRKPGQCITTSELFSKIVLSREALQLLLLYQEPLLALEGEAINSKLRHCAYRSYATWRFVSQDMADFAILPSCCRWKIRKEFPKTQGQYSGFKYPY
MEASUREMENT DESCRIPTION: Antagonist activity at rat P2X7 receptor expressed in human 1321N1 cells assessed as inhibition of calcium flux by FLIPR
pIC50: −log10 of the molar value.
Entries annotated with measured pIC50

{"columns": ["STRUCTURE STRING", "pIC50"],
 "data": [
  ["Clc1cccc(-c2nnnn2Cc2ccccc2)c1Cl", 7.10],
  ["Fc1ccc(-n2nnnc2Cc2cccnc2)c(Cl)c1Cl", 7.00],
  ["Cc1ccccc1Cn1nnnc1-c1cccc(Cl)c1Cl", 7.20],
  ["FC(F)(F)c1cccc(-c2nnnn2Cc2cccnc2)c1Cl", 7.20],
  ["Cc1nc(C)c(Cn2nnnc2-c2cccc(Cl)c2Cl)s1", 5.90],
  ["FC(F)(F)c1cccc(-n2nnnc2Cc2cccnc2)c1Cl", 7.30],
  ["Clc1cccc(-c2nnnn2Cc2ccncc2)c1Cl", 5.50],
  ["Fc1c(-c2nnnn2Cc2cccnc2)cccc1C(F)(F)F", 7.10],
  ["Clc1cccc(-c2nnnn2Cc2cccnc2)c1Cl", 6.50],
  ["Cc1ncccc1Cn1nnnc1-c1cccc(Cl)c1Cl", 6.70]
]}
